Measured values drawn from ChEMBL document CHEMBL4725242 for this set.

target: Toll-like receptor 7 (Homo sapiens); assay: Agonist activity at TLR7 in human cryopreserved PBMC assessed as induction of IFNalpha production measured after 24 hrs
Sequence (Q9NYK1 whole entry): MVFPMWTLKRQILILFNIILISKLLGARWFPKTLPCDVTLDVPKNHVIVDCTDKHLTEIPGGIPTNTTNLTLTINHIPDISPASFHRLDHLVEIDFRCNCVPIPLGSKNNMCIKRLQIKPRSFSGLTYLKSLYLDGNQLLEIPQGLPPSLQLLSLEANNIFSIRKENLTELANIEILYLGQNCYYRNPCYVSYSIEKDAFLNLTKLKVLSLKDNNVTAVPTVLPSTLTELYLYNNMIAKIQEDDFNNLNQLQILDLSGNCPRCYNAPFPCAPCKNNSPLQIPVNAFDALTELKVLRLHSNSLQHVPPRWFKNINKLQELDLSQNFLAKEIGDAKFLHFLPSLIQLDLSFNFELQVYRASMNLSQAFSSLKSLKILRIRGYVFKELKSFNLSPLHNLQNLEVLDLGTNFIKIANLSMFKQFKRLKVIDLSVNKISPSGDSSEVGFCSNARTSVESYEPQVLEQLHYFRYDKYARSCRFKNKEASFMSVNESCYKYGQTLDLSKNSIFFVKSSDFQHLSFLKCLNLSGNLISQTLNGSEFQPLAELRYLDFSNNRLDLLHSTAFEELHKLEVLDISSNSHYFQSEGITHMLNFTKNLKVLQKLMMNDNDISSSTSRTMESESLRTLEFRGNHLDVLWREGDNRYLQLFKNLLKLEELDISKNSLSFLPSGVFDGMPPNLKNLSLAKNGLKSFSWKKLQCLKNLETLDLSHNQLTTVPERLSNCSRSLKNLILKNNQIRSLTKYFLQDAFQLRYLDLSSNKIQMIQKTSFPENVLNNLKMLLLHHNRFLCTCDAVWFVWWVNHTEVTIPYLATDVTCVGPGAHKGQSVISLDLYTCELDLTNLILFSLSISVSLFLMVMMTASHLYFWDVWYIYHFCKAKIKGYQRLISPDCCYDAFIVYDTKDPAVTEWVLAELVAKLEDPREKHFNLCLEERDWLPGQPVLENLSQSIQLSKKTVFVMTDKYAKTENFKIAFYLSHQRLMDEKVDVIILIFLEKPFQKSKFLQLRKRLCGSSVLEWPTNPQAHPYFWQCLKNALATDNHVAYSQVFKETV
pEC50: −log10 of the molar value.
REPORTED PROPERTY: pEC50

[[record]]
molecule = "CCCC[C@H](CO)Nc1nc(N)nc2cccnc12"
result = "< 4.30"


Ask: Consider the molecule shown here: CCCC[C@@H](Nc1nc(N)nc2cccnc12)C(=O)NC What is its recorded pEC50?
Result: < 4.30

Ask: Consider the molecule shown here: CCCC[C@H](CN)Nc1nc(N)nc2cccnc12 What is its recorded pEC50?
Result: < 4.30

Ask: Consider the molecule shown here: CCCC[C@@H](CO)Nc1cc(N)nc2ccccc12 What is its recorded pEC50?
Result: < 4.30

Ask: Consider the molecule shown here: C[C@](CO)(CCCCO)Nc1nc(N)nc2cc(F)cnc12 What is its recorded pEC50?
Result: < 4.30

Ask: Consider the molecule shown here: CCCC[C@](C)(CO)Nc1nc(N)nc2cc(F)cnc12 [SELGANTOLIMOD] What is its recorded pEC50?
Result: < 4.30

Ask: Consider the molecule shown here: CCCN(CCC)C(=O)C1=Cc2ccc(-c3ccc(C(=O)N4CCCC4)cc3)cc2N=C(N)C1 [MOTOLIMOD] What is its recorded pEC50?
Result: < 4.52

Ask: Consider the molecule shown here: CCCC[C@@](C)(CO)Nc1nc(N)nc2cccnc12 What is its recorded pEC50?
Result: 5.10

Ask: Consider the molecule shown here: CCCC[C@@H](CO)Nc1nc(N)nc2ccccc12 What is its recorded pEC50?
Result: 6.24

Ask: Consider the molecule shown here: CCCCC[C@](C)(CO)Nc1nc(N)nc2cccnc12 What is its recorded pEC50?
Result: 4.70

Ask: Consider the molecule shown here: CCCC(C)Nc1nc(N)nc2cccnc12 (stereo unspecified) What is its recorded pEC50?
Result: 5.29
